Cited source for all entries: PubChem BioAssay (NCATS)

System: Zika virus NS2B-NS3 protease (linked construct)
Assay: 384 well plate NINDS Rhodamine confirmatory qHTS for Zika virus inhibitors (AID 1347164);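 note: fluorescence from protease cleavage of Ac-LKRR-rhodamine 110 substrate; potency is the fitted concentration of half-maximal effect; nearly all actives have a fitted effect of over 65% in size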
Settings: rhodamine-110 peptide substrate fluorescence; series mostly up to 1 mM
Source text: Description: Assay Submitters (PI): Avindra Nath, Ph.D., National Institute of Neurological Disorders and Stroke (NINDS), Bethesda, MD Radhakrishnan Padmanabhan, Ph.D., Georgetown University (GU), Washington D.C. Zika Virus causes congenital defects, including microcephaly and is associated with Guillain-Barre syndrome, eningoencephalitis and myelitis in infected adult. […]
Inconclusive results are not listed. Active and inactive are the calls of the source. Calls come from the whole dose curve; as a rule, active = well fitted inhibition curve with a large enough effect; inconclusive = small, poorly fitted or top-dose-only effect; inactive = no such curve, though single readings can be large or run the other way.
readout.kind: Potency

INSERT INTO assay_data (compound, assay_value) VALUES
  ('COc1ccc(NS(=O)(=O)c2ccc(NS(=O)(=O)c3ccc4c(c3)OCCO4)cc2)cc1', '141 µM (active)'),
  ('O=C(O)CSc1nc2ccc(NC(=O)COc3ccc(Cl)cc3)cc2s1', '28.2 µM (active)'),
  ('COc1cc(O)c2c(=O)cc(-c3ccc(OC)c(-c4c(O)cc(O)c5c(=O)cc(-c6ccc(O)cc6)oc45)c3)oc2c1', '112 µM (active)');

Alright, here's another compound for you.
-- ask What does the data say about its Potency? Entry: CC1CCN(C(c2ccc(F)cc2)c2ccc(C(C)C(=O)O)cc2-c2ccc(C(F)(F)F)cc2)CC1 (stereo not given)
-- reply 2.51 µM (active)
